- Test system: Human immunodeficiency virus 1
- assay-remarks: Effective antiviral concentration against HIV-1 infected CEM-SS cells
- Format: functional, organism-based
- condition-description: Human immunodeficiency virus 1, CEM-SS
recorded-metric: pEC50
Expect pEC50 as a plain number equal to -log10 of the molar concentration.

>>> assay_value("CC(=O)NS(=O)(=O)c1ccc(NC(=O)c2cccc(NC(=O)CCCl)c2)cc1")
4.42

Prompt: State recorded pEC50 with Human immunodeficiency virus 1, entry NS(=O)(=O)c1ccc(NC(=O)CNC(=O)c2ccccc2SSc2ccccc2C(=O)NCC(=O)Nc2ccc(S(N)(=O)=O)cc2)cc1 , no comment.
Completion: 5.80

Prompt: For Human immunodeficiency virus 1, give pEC50 of the listed compound: Cc1cc(NS(=O)(=O)c2ccc(-n3sc4ccccc4c3=O)cc2)no1
Completion: 5.06

Prompt: Find pEC50 for O=C(Nc1ccc(S(=O)(=O)c2ccc(NC(=O)c3ccccc3SSc3ccccc3C(=O)Nc3ccc(S(=O)(=O)c4ccc(NC(=O)c5ccc([N+](=O)[O-])cc5)cc4)cc3)cc2)cc1)c1ccc([N+](=O)[O-])cc1 on Human immunodeficiency virus 1 and write it down.
Completion: 4.11

Prompt: Provide pEC50, tested on Human immunodeficiency virus 1, for CC(=O)NS(=O)(=O)c1ccc(NC(=O)c2ccccc2SC(C)=O)cc1 .
Completion: 5.55

###

- Tested on: Human immunodeficiency virus 1
- assay-remarks: Nucleocapsid p7 protein (NCp7) zinc finger domain reactivity was measured by Trp37 fluorescence assay expressed as the average decrease in relative fluorescence units over 30 min
- Assay type: functional
recorded-metric: Activity (RFU min-1)
Could you give me the number in RFU min-1? Just the number is fine.

The examples below pair each entry with its known result.
>>> assay_value("CC(=O)NS(=O)(=O)c1ccc(NC(=O)c2cccc(NC(=O)CCCl)c2)cc1")
3.9
>>> assay_value("CC(=O)Nc1cccc(S(=O)(=O)c2cccc(NC(=O)c3ccccc3SSc3ccccc3C(=O)Nc3cccc(S(=O)(=O)c4cccc(NC(C)=O)c4)c3)c2)c1")
2
>>> assay_value("CC(=O)NS(=O)(=O)c1ccc(NC(=O)c2ccccc2NC(=O)CCCl)cc1")
2

From here, focus on the item given below.
Prompt: Check the records and state Activity for O=c1c2ccccc2sn1-c1ccc(S(=O)(=O)c2ccc([N+](=O)[O-])cc2)cc1
Completion: 4.1
